Cited source: PubChem BioAssay AID651581

// IC50 lookup, one value per entry
TESTED_ON: Endothelial PAS domain-containing protein 1 (Homo sapiens)
ASSAY_NOTES: HIF-2a and HIF-1a reporter inhibition panel, dose response, selectivity assay for HIF-2a inhibitor project, cell-based, luminescence (AID 651581)
CONDITION_SUMMARY: HIF-2a, run 1
TEST_READOUT: IC50 (µM)

COC(=O)c1ccc(C(=O)OC)c(-n2c(=O)c3ccccc3c3ccccc3c2=O)c1 = 25.7
O=C1C=CC(=O)N1c1cccc(-c2ccccc2)c1 = 7.96
Nc1ccc2oc(-c3cc(Br)ccc3Cl)nc2c1 = 1.08
CCOC(=O)c1cccc(NC(=O)Nc2ccc(OCC)cc2)c1 = 11.2
CS(=O)(=O)c1ccc(-c2cn3cc(C(=O)O)ccc3n2)cc1 = 28.8

* * *

TESTED_ON: Hypoxia-inducible factor 1-alpha (Homo sapiens) (UniProt Q16665)
Sequence (Q16665 whole entry, looked up): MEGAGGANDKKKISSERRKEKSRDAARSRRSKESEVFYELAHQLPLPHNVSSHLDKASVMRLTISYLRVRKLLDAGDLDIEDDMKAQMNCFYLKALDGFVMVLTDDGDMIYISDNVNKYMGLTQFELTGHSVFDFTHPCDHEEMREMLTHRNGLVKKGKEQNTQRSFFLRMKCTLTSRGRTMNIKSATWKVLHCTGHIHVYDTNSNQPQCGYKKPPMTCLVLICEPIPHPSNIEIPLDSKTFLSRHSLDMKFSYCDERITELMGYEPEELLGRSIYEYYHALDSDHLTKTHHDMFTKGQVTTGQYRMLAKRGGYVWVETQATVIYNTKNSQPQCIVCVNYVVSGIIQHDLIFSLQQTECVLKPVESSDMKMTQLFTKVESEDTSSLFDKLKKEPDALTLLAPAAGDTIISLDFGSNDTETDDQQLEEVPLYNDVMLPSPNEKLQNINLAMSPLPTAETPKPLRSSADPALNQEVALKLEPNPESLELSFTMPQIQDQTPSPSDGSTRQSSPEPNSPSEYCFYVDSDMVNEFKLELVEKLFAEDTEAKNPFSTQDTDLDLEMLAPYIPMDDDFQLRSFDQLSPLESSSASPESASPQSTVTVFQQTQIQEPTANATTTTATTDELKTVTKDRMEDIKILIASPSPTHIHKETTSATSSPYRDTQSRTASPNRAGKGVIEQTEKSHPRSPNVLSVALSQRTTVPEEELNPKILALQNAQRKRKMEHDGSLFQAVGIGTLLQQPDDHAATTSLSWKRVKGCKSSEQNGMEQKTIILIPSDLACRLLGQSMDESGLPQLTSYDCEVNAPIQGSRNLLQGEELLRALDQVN
ASSAY_NOTES: HIF-2a and HIF-1a reporter inhibition panel, dose response, selectivity assay for HIF-2a inhibitor project, cell-based, luminescence (AID 651581)
CONDITION_SUMMARY: HIF-1a, run 2
pIC50: −log10 of the molar value.
TEST_READOUT: pIC50

Cc1nc2cc(-c3ccccc3)nn2c(C)c1CCC(=O)NC(C)c1ccc2c(c1)OCCO2 (stereo not drawn) = 4.35
O=C(c1ccccc1)N1CCSc2sccc2C1=O = 4.26
COc1ccc(/C=C2\SC(=O)N(CCNC(=O)Cn3[nH]c(=O)c4ccccc4c3=O)C2=O)cc1 = 4.76
CC(=O)N(C(C)=O)c1ccc(Oc2ccc(Oc3ccc(N(C(C)=O)C(C)=O)cc3)cc2)cc1 = 4.69
NC(=O)COC(=O)CCCSc1nc2ccccc2s1 = 4.92
O=C(O)c1ccc(N/N=C/c2ccc(C(F)(F)F)cc2)cc1 = 4.66
O=C(CCCSc1nc2ccccc2s1)NC1=NCCS1 = 4.98
CCOC(=O)c1cccc(NC(=O)/C=C/c2ccc3c(c2)OCO3)c1 = 4.56
CCOC(=O)Cc1csc(NC(=S)NC(=O)c2ccc([N+](=O)[O-])cc2)n1 = 4.33
COc1cccc(C(=O)C(C#N)=C(SC)SC)c1 = 4.88
CC(=O)Nc1ccc(OS(=O)(=O)c2c(C)cc(C)cc2C)cc1 = 4.31
Cn1ncc2c(O/N=C(\N)c3ccc(C(C)(C)C)cc3)ncnc21 = 4.32
Cc1nc(SCc2ccc(C(=O)O)cc2)nc2c1CCCC2 = 5.12
Cc1ccc(C)c(-c2nc3cc(N)ccc3o2)c1 = 4.25
Cc1nc(SCCC(=O)O)c2cc(-c3ccccc3)sc2n1 = 5.81
COc1ccc(CNC(=O)c2nc(S(=O)(=O)Cc3ccccc3)ncc2Cl)cc1 = 4.58
Cc1nc2cc(-c3cccc(F)c3)nn2c(C)c1CCC(=O)NC(C)c1ccc2c(c1)OCCO2 (stereo not drawn) = 4.74

* * *

TESTED_ON: Endothelial PAS domain-containing protein 1 (Homo sapiens) (UniProt Q99814)
ASSAY_NOTES: HIF-2a and HIF-1a reporter inhibition panel, dose response, selectivity assay for HIF-2a inhibitor project, cell-based, luminescence (AID 651581)
CONDITION_SUMMARY: HIF-2a, run 2
TEST_READOUT: IC50 (µM)

Cc1cccc(NC(=S)NNc2ncc(C(F)(F)F)cc2Cl)c1 = 9.11
O=C(c1ccccc1)c1cc(Cl)ccc1N1C(=O)C=CC1=O = 6.78
Cc1c(CCC(=O)N[C@@H](CC(C)C)C(=O)O)c(=O)oc2cc3oc4c(c3cc12)CCCC4 = 1.61
O=C(CCCc1nc(-c2ccccc2Cl)no1)NC1CCCC1 = 1.08
